Target Under Test: Human NK1 Receptor (Homo sapiens)
Construct: endogenous in cells; host or cells: Human lymphoma IM9 cells (whole cells)
Method: In Vitro Human NK1 Receptor Binding Assay ([125I]Bolton-Hunter substance P displacement, IM9 cells)
Measurement Setup: human NK1 receptor, IM9 cells, [125I]Bolton-Hunter substance P; read-out: IC50 (nM) hNK1
Measured Endpoint: IC50 (nM)
Give just the numeric value; nM need not be written.

- CC(Cc1c[nH]c2ccccc12)(NCc1cc2ccccc2o1)C(=O)NC1Cc2ccccc2C1 (stereo not shown): 463
- CC(Cc1c[nH]c2ccccc12)(NCc1cc2ccccc2o1)C(=O)NCCc1ccc(S(N)(=O)=O)cc1 (stereo not shown): 7620

Please find the next compound below.
The compound identified as COc1cccc(CNC(=O)C(C)(Cc2c[nH]c3ccccc23)NCc2cc3ccccc3o2)c1OC (stereo not shown) registered its IC50 at 1960

----------
Target Under Test: Human NK1 Receptor (Homo sapiens, UniProt P25103)
Construct: endogenous in cells; host or cells: Human lymphoma IM9 cells (whole cells)
Sequence (P25103 whole entry): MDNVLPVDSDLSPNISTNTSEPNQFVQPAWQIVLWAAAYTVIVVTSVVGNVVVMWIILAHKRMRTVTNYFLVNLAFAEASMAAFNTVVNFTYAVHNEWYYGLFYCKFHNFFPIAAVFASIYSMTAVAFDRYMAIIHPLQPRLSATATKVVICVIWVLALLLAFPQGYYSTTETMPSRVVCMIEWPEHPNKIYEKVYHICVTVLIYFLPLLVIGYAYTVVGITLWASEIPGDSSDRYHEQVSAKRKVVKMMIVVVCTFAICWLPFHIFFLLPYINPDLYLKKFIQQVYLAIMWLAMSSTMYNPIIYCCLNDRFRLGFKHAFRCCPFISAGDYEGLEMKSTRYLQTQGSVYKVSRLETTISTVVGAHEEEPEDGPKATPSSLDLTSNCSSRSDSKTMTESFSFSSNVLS
Method: In Vitro Human NK1 Receptor Binding Assay ([125I]Bolton-Hunter substance P displacement, IM9 cells)
Measurement Setup: Table 4; [125I]Bolton-Hunter substance P displacement, human IM9 cells; read-out: IC50 (nM) hNK1
# note: boundary value 1000 nM maps to criterion not met; IC50 below it maps to criterion met

Example entries and their recorded answers appear below.
- CC(NC(=O)C(C)(Cc1c[nH]c2ccccc12)NCC=Cc1ccco1)c1ccccc1 (stereo not drawn): criterion met
- CC=C(C)CCC=C(C)CNC(C)(Cc1c[nH]c2ccccc12)C(=O)NC(C)c1ccccc1 (stereo not drawn): criterion not met
- COc1ccc2oc(CNC(C)(Cc3c[nH]c4ccccc34)C(=O)NC(C)c3ccccc3)cc2c1 (stereo not drawn): criterion not met
- CNS(=O)(=O)c1cc(Cl)ccc1CNC(C)(Cc1c[nH]c2ccccc12)C(=O)NC(C)c1ccccc1 (stereo not drawn): criterion not met
- CC(NC(=O)C(C)(Cc1c[nH]c2ccccc12)NCc1ccc(OCCCC(C)(C)C(=O)O)cc1)c1ccccc1 (stereo not drawn): criterion not met

Prompt: Hi there! Is IC50 for CC(NC(=O)C(C)(Cc1c[nH]c2ccccc12)NCc1cccc(OCc2ccccc2)c1)c1ccccc1 (stereo not drawn) below 1000 nM, do you know?
Completion: criterion met

Prompt: Quick check: IC50 of CC(NC(=O)C(C)(Cc1c[nH]c2ccccc12)NCc1ccc(OCCN(C)C)cc1)c1ccccc1 (stereo not drawn) under 1000 nM?
Completion: criterion not met

Prompt: In plain terms, does CC(NC(=O)C(C)(Cc1c[nH]c2ccccc12)NCc1c[nH]c2ccccc12)c1ccccc1 (stereo not drawn) come in under 1000 nM for IC50?
Completion: criterion not met

Prompt: Consider CC(NC(=O)C(C)(Cc1c[nH]c2ccccc12)NCc1ccco1)c1ccccc1 (stereo not drawn) . Does its IC50 lie strictly below 1000 nM?
Completion: criterion met

----------
Measured Endpoint: melting point

// below: answered compounds
- C[C@H](NC(=O)[C@@](C)(Cc1c[nH]c2ccccc12)NC(=O)NCc1cc2ccccc2o1)c1ccccc1 (relative stereo) [Example 22]: 176 to 178 °C
- C[C@H](NC(=O)[C@@](C)(Cc1c[nH]c2ccccc12)NCc1cc2ccccc2o1)c1ccncc1 (relative stereo) [Example 3]: 66 to 69 °C
- C[C@H](NC(=O)[C@@H](Cc1c[nH]c2ccccc12)NCc1nc2ccccc2[nH]1)c1ccccc1 (relative stereo) [Example 9]: 148 to 152.5 °C
- CC(C)(NC(=O)[C@@](C)(Cc1c[nH]c2ccccc12)NCc1cc2ccccc2o1)c1ccccc1 [Example 1]: 57 to 62 °C
- CN(C)C[C@H](NC(=O)[C@@](C)(Cc1c[nH]c2ccccc12)NCc1cc2ccccc2o1)c1ccccc1 [Example 4]: 130 to 134 °C

Recorded result, C[C@H](NC(=O)[C@@](C)(Cc1c[nH]c2ccccc12)NCc1coc2ccccc12)c1ccccc1 (relative stereo) [Example 19] , melting point: 104 to 106 °C

Form field melting point, entry C[C@H](NC(=O)[C@@H](Cc1c[nH]c2ccccc12)NCCc1cc2ccccc2o1)c1ccccc1 (relative stereo) [Example 7] : 105 to 107 °C

// field: melting point; key: C[C@H](NC(=O)[C@@H](Cc1c[nH]c2ccccc12)NCc1cnc2ccccc2c1)c1ccccc1 (relative stereo) [Example 11] ; value = 161 to 163 °C

According to the records, this compound C[C@H](NC(=O)[C@@H](Cc1c[nH]c2ccccc12)NCc1cc2ccccc2s1)c1ccccc1 [Example 10] displays melting point of 102 to 108 °C

----------
Target Under Test: Human NK1 Receptor (Homo sapiens)
Construct: endogenous in cells; host or cells: Human lymphoma IM9 cells (whole cells)
Method: In Vitro Human NK1 Receptor Binding Assay ([125I]Bolton-Hunter substance P displacement, IM9 cells)
Measurement Setup: human NK1 receptor, IM9 cells, [125I]Bolton-Hunter substance P; read-out: IC50 (nM) hNK1
Quick list: IC50 per entry.

Some solved entries appear below for comparison.
• COC1C=CC(CNC(=O)C(C)(Cc2c[nH]c3ccccc23)NCc2cc3ccccc3o2)(OC)O1 (stereo not drawn) = > 10000 nM
• CC(Cc1c[nH]c2ccccc12)(NCc1cc2ccccc2o1)C(=O)NCC1CC2CCC1C2 (stereo not drawn) = > 10000 nM
• CC1CCC(C)N1CCCCNC(=O)C(C)(Cc1c[nH]c2ccccc12)NCc1cc2ccccc2o1 (stereo not drawn) = > 10000 nM

We next turn to a different molecule, shown below.
For CC(Cc1c[nH]c2ccccc12)(NCc1cc2ccccc2o1)C(=O)NCCN1CCCC1 (stereo not drawn) the molecule record lists IC50 as > 10000 nM

----------
Target Under Test: Human NK1 Receptor (Homo sapiens)
Construct: endogenous in cells; host or cells: Human lymphoma IM9 cells (whole cells)
Method: In Vitro Human NK1 Receptor Binding Assay ([125I]Bolton-Hunter substance P displacement, IM9 cells)
Measurement Setup: Table 4; [125I]Bolton-Hunter substance P displacement, human IM9 cells; read-out: IC50 (nM) hNK1
Measured Endpoint: IC50

Recorded results for 2 compounds are shown here.
• CC(C)C=CCC1=CCC(CNC(C)(Cc2c[nH]c3ccccc23)C(=O)NC(C)c2ccccc2)CC1 (stereo not drawn) = > 10000 nM
• CCCCCC(=Cc1ccccc1)CNC(C)(Cc1c[nH]c2ccccc12)C(=O)NC(C)c1ccccc1 (stereo not drawn) = > 10000 nM

Now examine the next entry.
Per the records, this compound ( CC(NC(=O)C(C)(Cc1c[nH]c2ccccc12)NCc1c2ccccc2cc2ccccc12)c1ccccc1 (stereo not drawn) ) has IC50 equal to > 10000 nM

----------
Target Under Test: Human NK1 Receptor (Homo sapiens, UniProt P25103)
Construct: endogenous in cells; host or cells: Human lymphoma IM9 cells (whole cells)
Method: In Vitro Human NK1 Receptor Binding Assay ([125I]Bolton-Hunter substance P displacement, IM9 cells)
Measurement Setup: Table 4; [125I]Bolton-Hunter substance P displacement, human IM9 cells; read-out: IC50 (nM) hNK1
Consider the following compounds and their measured IC50 readings.
State just the number; it will be interpreted in nM.

* CC(NC(=O)C(C)(Cc1c[nH]c2ccccc12)NCc1ccc2c(c1)Cc1ccccc1-2)c1ccccc1 (centres unmarked) | 1730
* CC(NC(=O)C(C)(Cc1c[nH]c2ccccc12)NCc1cncc2ccccc12)c1ccccc1 (centres unmarked) | 1600
* CC(NC(=O)C(C)(Cc1c[nH]c2ccccc12)NCc1ccc2ccccc2n1)c1ccccc1 (centres unmarked) | 88
* CSc1ccc(CNC(C)(Cc2c[nH]c3ccccc23)C(=O)NC(C)c2ccccc2)cc1 (centres unmarked) | 609

Now consider a different compound.
What the record says about CC(NC(=O)C(C)(Cc1c[nH]c2ccccc12)NCc1cc2ccccc2o1)c1ccccc1 (centres unmarked) : IC50 is 13

----------
Target Under Test: Human NK1 Receptor (Homo sapiens, UniProt P25103)
Construct: endogenous in cells; host or cells: Human lymphoma IM9 cells (whole cells)
Method: In Vitro Human NK1 Receptor Binding Assay ([125I]Bolton-Hunter substance P displacement, IM9 cells)
Measurement Setup: Human lymphoma IM9 cells, [125I]Bolton-Hunter substance P; Table 3, array-synthesis products; read-out: IC50 (nM) hNK1
Measured Endpoint: IC50 (nM)
Use nM as the unit, but write only the number.

• O=C(NCC1CCCCC1)C(Cc1c[nH]c2ccccc12)NCc1cc2ccccc2o1 (stereo not drawn) = 54

The reported value for O=C(NCc1ccccc1F)C(Cc1c[nH]c2ccccc12)NCc1cc2ccccc2o1 (stereo not drawn) in terms of IC50 is 89

The measured IC50 associated with O=C(NCc1cc(F)ccc1F)C(Cc1c[nH]c2ccccc12)NCc1cc2ccccc2o1 (stereo not drawn) reads 68

For this molecule ( O=C(NCc1cccc(OC(F)(F)F)c1)C(Cc1c[nH]c2ccccc12)NCc1cc2ccccc2o1 (stereo not drawn) ), measured IC50 is 355

Lab note: O=C(NC1CC1c1ccccc1)C(Cc1c[nH]c2ccccc12)NCc1cc2ccccc2o1 (stereo not drawn) gave IC50 of 2900

Entry O=C(NCCN1CCOCC1)C(Cc1c[nH]c2ccccc12)NCc1cc2ccccc2o1 (stereo not drawn) ; IC50 = 1260

Looking up O=C(NCc1cccc(Br)c1)C(Cc1c[nH]c2ccccc12)NCc1cc2ccccc2o1 (stereo not drawn) , I found its IC50 recorded as 31

Consider CC(C)(NC(=O)C(Cc1c[nH]c2ccccc12)NCc1cc2ccccc2o1)C1CCCCC1 (stereo not drawn) . Its measured IC50 is 1340

Each recorded value in this set is attributed to patent US6472418B1.
